The measurements presented in this section are drawn from patent US20240408169A1.

Quick list: pIC50 per entry.
Biological target: CyclinB1/CDK1 (Homo sapiens)
Construct: purchased Eurofins, discovery 14-450
Assay: Fluorescence Polarization (FP) competitive binding assay, Cyclin B1/Cdk1;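 note: fluorescence polarization read after equilibration at room temperature, with IC50 taken from serially diluted dose-response curves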
Conditions: 10 nM Cyclin B1/Cdk1, 2 nM FAM probe; average of 2-3 independent experiments; read-out: Cyclin B FP IC50
*1 amine or outer side, *2 acyl side, *3 side chain or, on linkers, in order; H or OH if unused. Where a SMILES comes first, the peptide text is derived from it. Bridges are numbered along the chain shown (N, C = ends). [ ]: non-standard residue; d: D form. The star is where a group is joined. NMePhe(2-(4-MorPh),5-Cl) = CN[C@@H](Cc1cc(Cl)ccc1-c1ccc(N2CCOCC2)cc1)C(=O)O; NMehhhLys(Me) = CN([C@@H](CCCCCCCN(C)[*:3])C(=O)[*:2])[*:1]; X22 = CN([C@@H](Cc1cc(Cl)ccc1-c1cnn(C)c1)C(=O)[*:2])[*:1]; cBuCO(3,3-F2-1-CF3) = O=C(C1(C(F)(F)F)CC(F)(F)C1)*; Pro(trans-4-F) = O=C(O)[C@@H]1C[C@@H](F)CN1; X27 = O=C([C@]1(C(F)(F)F)CCCCO1)*; Gly(cPr) = N[C@H](C(=O)O)C1CC1
Reminder that pIC50 means the negative base-10 logarithm of the concentration expressed in mol/L.

Below, each entry is followed by its recorded pIC50 result.
Compound	pIC50
CC(C)C[C@@H]1NC(=O)[C@@H](N(C)C(=O)[C@@H](NC(=O)[C@@H]2C[C@@H](F)CN2C(=O)[C@]2(C(F)(F)F)CCCCO2)C2CC2)CCCCCCCN(C)C(=O)[C@H](Cc2cc(Cl)ccc2-c2cnn(C)c2)N(C)C1=O [Example 183] (X27-[Pro(trans-4-F)][Gly(cPr)][NMehhhLys(Me)]L[X22]; lactam 3-C)	7.70
CC(=O)N1CC=C(c2ccc(Cl)cc2C[C@H]2C(=O)NCCCCC=CC[C@H](N(C)C(=O)[C@@H](NC(=O)[C@@H]3C[C@@H](F)CN3C(=O)C3(C(F)(F)F)CC(F)(F)C3)C3CC3)C(=O)N[C@@H](CC(C)C)C(=O)N2C)CC1 [Example 18]	7.70

Next compound, please.
Quick check: pIC50 of COC(=O)CC[C@H](NC(=O)[C@@H]1C[C@@H](F)CN1C(=O)C1(C(F)(F)F)CC(F)(F)C1)C(=O)N(C)[C@H]1CCCCCCCN(C)C(=O)[C@H](Cc2cc(Cl)ccc2-c2ccc(N3CCOCC3)cc2)N(C)C(=O)[C@H](CC(C)C)NC1=O [Example 415] ({cBuCO(3,3-F2-1-CF3)}-[Pro(trans-4-F)]E(OMe)[NMehhhLys(Me)]L[NMePhe(2-(4-MorPh),5-Cl)]; lactam 3-C) ?
7.70
